- Test Target: T1, mANGPTL3(17-455)-His (Mus musculus, UniProt Q9R182 17-455)
- T1 construct: Bought protein (R&D Systems); also called full-length mature ANGPTL3 from Mus musculus with a C-terminal decahistidine tag
- T1 sequence: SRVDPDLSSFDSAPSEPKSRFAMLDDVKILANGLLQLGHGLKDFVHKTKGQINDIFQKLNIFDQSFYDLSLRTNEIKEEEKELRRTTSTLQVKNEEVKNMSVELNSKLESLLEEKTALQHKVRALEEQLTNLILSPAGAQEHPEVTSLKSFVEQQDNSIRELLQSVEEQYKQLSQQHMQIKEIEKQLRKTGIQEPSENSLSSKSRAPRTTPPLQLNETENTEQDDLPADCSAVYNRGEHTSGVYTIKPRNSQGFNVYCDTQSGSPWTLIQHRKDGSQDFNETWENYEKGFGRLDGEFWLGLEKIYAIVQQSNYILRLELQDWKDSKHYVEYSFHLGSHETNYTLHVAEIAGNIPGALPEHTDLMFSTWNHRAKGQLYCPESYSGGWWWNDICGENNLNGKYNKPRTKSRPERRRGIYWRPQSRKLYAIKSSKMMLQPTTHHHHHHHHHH
- Method Notes: SPR Biacore, antigen captured, 37C, pH 7.4, HBS-EP
Metric Name: koff (s⁻¹)
The reply should contain only the number, in s⁻¹.

Record request: koff value, item H4H1292P (antibody, IgG4, V domains shown) VH: QVQLVESGGGLVKPGGSLRLSCAASGFTFSDYYMSWIRQAPGKGLEWVSYISSSGSTIYYADSVKGRFTISRDNAKNSLYLQMNSLRAEDTAVYYCARDSSQLGFDYWGQGTLVTVSS VL: DIQMTQSPSSLSASVGDRVTITCRASQSIISFLNWYQQKPGKAPKLLIYTASSLQSGVPSRFSGSGSGTDFTLTISSLQPEDFATYYCQQTYSNPLTFGGGTKVEIKR
0.00149
